Values from PubChem BioAssay AID463190

- Method Notes: growth inhibitors of tim10-1 mutant yeast, primary screen, luminescence, uHTS (AID 463190);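 also: mutant grown at 25 °C; 0% = DMSO wells with yeast and 100% = wells holding no yeast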
- Measurement Context: S. cerevisiae tim10-1 ts strain growth, BacTiter-Glo, 24 h; at 20 µM; active compounds read high
Hit rate of the full screen: of about 330,000 compounds, about 7,300 (2.2%) were called active. The full list was thinned out, with actives kept by preference.
Assay Readout: inhibition (%)
Give the number; % is assumed, so skip it.

Molecule | inhibition [%]
N/C(=N\OC(=O)CCn1cccc(C(F)(F)F)c1=O)c1ccc(OC(F)(F)F)cc1 | -0.346

The recorded inhibition for entry `Cc1oc2cc(Br)c(O)c(Br)c2c1C(=O)c1ccccc1` equals 41.8
